Recorded values, source patent US20080161247A1.

Target: Plasmodium falciparum enoyl-Acyl carrier protein (ACP) reductase (PfENR) (Plasmodium falciparum, UniProt Q9BH77)
Sequence (Q9BH77 22-432): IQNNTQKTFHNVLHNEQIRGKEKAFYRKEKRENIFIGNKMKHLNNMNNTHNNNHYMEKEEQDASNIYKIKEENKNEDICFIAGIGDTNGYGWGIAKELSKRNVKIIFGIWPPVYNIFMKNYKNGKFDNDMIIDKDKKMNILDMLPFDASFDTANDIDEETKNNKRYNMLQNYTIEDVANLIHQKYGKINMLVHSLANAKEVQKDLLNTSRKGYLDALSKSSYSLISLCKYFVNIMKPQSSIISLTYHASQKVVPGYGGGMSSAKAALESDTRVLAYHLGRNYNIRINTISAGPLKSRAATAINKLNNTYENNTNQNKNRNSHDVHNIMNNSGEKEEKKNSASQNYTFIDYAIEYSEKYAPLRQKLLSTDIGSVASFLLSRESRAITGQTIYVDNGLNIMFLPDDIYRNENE
pIC50: −log10 of the molar value.
pIC50: recorded values

# molecule, pIC50
data = [
    ("O=C(/C=C/c1ccc(O)c(O)c1)c1ccc(O)cc1O", 4.90),
    ("O=C(O[C@@H]1Cc2c(O)cc(O)cc2O[C@@H]1c1ccc(O)c(O)c1)c1cc(O)c(O)c(O)c1 [ECG, (−) epicatechin gallate]", 6.30),
    ("Oc1cc(O)c2c(c1)O[C@H](c1cc(O)c(O)c(O)c1)[C@H](O)C2 [EGC, (−) epigallocatechin]", 5.15),
    ("O=c1c(O)c(-c2ccc(O)c(O)c2)oc2cc(O)cc(O)c12", 5.60),
]
